Task for the reader: assign each of the following compounds its reported pEC50.
# target-under-test: human RORγ (Homo sapiens, UniProt P51449)
# Construct: human RORγ, from Ser253 to Lys518; expressed in transfected cells; host or cells: CHO cells (Chinese hamster ovary), transient co-transfection with pG5-Luc
# Sequence (P51449 253-518): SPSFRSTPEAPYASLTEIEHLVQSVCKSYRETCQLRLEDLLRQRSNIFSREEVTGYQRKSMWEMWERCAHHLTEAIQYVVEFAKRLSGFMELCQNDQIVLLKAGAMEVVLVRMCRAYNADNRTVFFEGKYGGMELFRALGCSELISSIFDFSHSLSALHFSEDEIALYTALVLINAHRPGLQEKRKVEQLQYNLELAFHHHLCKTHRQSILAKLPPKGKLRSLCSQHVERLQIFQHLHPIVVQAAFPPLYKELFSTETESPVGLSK
# procedure-summary: In vitro assay of inhibitory effect against RORγ transcriptional activity (GAL4-hRORγ LBD luciferase reporter gene assay in CHO cells)
# Assay type: cell-based
# test-context: GAL4-hRORγ LBD luciferase reporter, CHO cells; read-out: LUC EC50 hRORγ
Answers are plain numbers, as −log10 of the molar value.

Example cases with answers are listed next.
> print(dat)
                                   compound  assay.endpoint  recorded.number
1  CC(C)C1=CN(C(C)(C)CC(=O)O)C(=O)N[C@@]1(C)c1ccc(CCC(C)(C)C)c(Cl)c1           pEC50             7.24
2  COc1cc(N2C=C(C(C)C)[C@](C)(c3ccc(CCC(C)(C)C)c(C(F)(F)F)c3)NC2=O)ccc1C(=O)O           pEC50             7.38
3  CC(C)(C)CCc1ccc([C@]2(C)NC(=O)N(C3CC(C)(C)C3)C=C2[C@H]2C[C@H](C(=O)O)C2)cc1Cl (single isomer, unassigned)           pEC50             7.44
4  CC(C)C1=CN(c2cc(C(=O)O)nn2C)C(=O)N[C@@]1(C)c1ccc(CCC(C)(C)C)c(Cl)c1           pEC50             7.36
5  COC[C@H]1C[C@@H](C2=CN(CCC(=O)O)C(=O)N[C@@]2(C)c2ccc(CCC(C)(C)C)c(Cl)c2)C1           pEC50             7.09

Items follow; give pEC50 for each.
1. COCCN1C=C(c2cnn(C(C)(C)C(=O)O)c2)[C@](C)(c2ccc(CCC(C)(C)C)c(Cl)c2)NC1=O
2. CC(C)C1=CN(C2CCCC2C(=O)O)C(=O)N[C@@]1(C)c1ccc(CCC(C)(C)C)c(Cl)c1 (single isomer, unassigned) [Example 242]
3. Cc1cc(N2C=C(C(C)C)[C@](C)(c3ccc(CCC(C)(C)C)c(Cl)c3)NC2=O)ccc1C(=O)O

Result:
5.43
7.11
7.92

Items follow; give pEC50 for each.
1. COCCC1=CN(c2ccc(C(=O)O)cc2)C(=O)N[C@@]1(C)c1ccc(CC2CCCCC2)c(Cl)c1
2. CC(C)C1=CN(CCC(=O)O)C(=O)N[C@@]1(C)c1ccc(CC2CCCC2)c(Cl)c1
3. CC(C)C1=CN(C23CCC(C(=O)O)(CC2)C3)C(=O)N[C@@]1(C)c1ccc(CCC(C)(C)C)c(Cl)c1
4. COCC1(N2C=C([C@H]3C[C@@H](C(=O)O)C3)[C@](C)(c3ccc(CCC(C)(C)C)c(Cl)c3)NC2=O)CC1
5. CC(C)(C)CCc1ccc([C@]2(C)NC(=O)N(C3CC(F)(F)C3)C=C2[C@H]2C[C@@H](C(=O)O)C2)cc1Cl

Result:
[8.00, 7.59, 7.72, 7.38, 8.05]
